experiment: Human HepG2 cell viability assay in 384 well format; type: toxicity, cell-based; design: dose 125 nL, time 70.5 hour; concentration not given beside the values; settings: HepG2 cells, read-out: Inhibition
readout_kind: cytotoxicity at 70.5 h
Mention the unit after the number when you answer.

Known cytotoxicity at 70.5 h results, listed for orientation:
| compound | result |
| --- | --- |
| O=C(c1cscn1)N1CCn2cnc(COCC3CC3)c2C1 | -4.79% |
| O=C(O)CSc1nnc(-c2ccn[nH]2)n1-c1ccccc1C(F)(F)F | -3.95% |
| COCCN1CCC2(C1)CN(c1ncc(F)cn1)C2 | 0.704% |

Consider the record given below.
// returns reported cytotoxicity at 70.5 h for input `c1cc2c(c(-c3cc(N4CCOCC4)ncn3)c1)CCNC2` -7.28%

---

experiment: Human HepG2 cell viability assay in 384 well format; assay type: toxicity, cell-based; parameters: dose 125 nL, time 70.5 hour; concentration not given beside the values; conditions: HepG2 cells, read-out: Inhibition
readout_kind: cytotoxicity at 70.5 h (%)
# value in %; strip the unit string

| compound | readout_kind | numeric_result |
| --- | --- | --- |
| Cc1ccc(CN(C)C(=O)c2n[nH]c(N)c2-c2ccccc2)o1 | cytotoxicity at 70.5 h | 28.7 |
| CCOC(=O)NC(CNC(=O)c1cccc(C)n1)CC(C)C (stereo not drawn) | cytotoxicity at 70.5 h | 7.69 |
| COc1ccc(CNC(=O)CCN2C[C@@H](C)[C@](O)(C3CC3)C2)cc1 | cytotoxicity at 70.5 h | -4.82 |
| CCc1cc(-c2cc[nH]n2)nc(N2CCCC2)n1 | cytotoxicity at 70.5 h | -7.99 |
| CN(C)C(=O)COC[C@@H]1CC[C@H]2[C@H](CCN2c2ccccn2)O1 | cytotoxicity at 70.5 h | 44.1 |

Consider the record given below.
// returns reported cytotoxicity at 70.5 h for input `CCc1csc(CNCC(=O)Nc2ccc(Cl)c(C)c2)n1` -6.59

---

experiment: Human HepG2 cell viability assay in 384 well format; assay type: toxicity, cell-based; design: dose 125 nL, time 70.5 hour; concentration not given beside the values; details: HepG2 cells, read-out: Inhibition
readout_kind: cytotoxicity at 70.5 h (%)
# value in %; strip the unit string

| smiles_record | readout_kind | readout_units | numeric_result |
| --- | --- | --- | --- |
| COc1cccc(-c2noc3c2CN(c2ncnc4c2CCC4)CC3)c1 | cytotoxicity at 70.5 h | % | -6.28 |
| Cc1ccc(N2CCCc3sc(C(=O)NCc4cccnc4)nc32)nn1 | cytotoxicity at 70.5 h | % | -10.4 |
| COc1ccc(Oc2ncccc2NC(=O)N2CCOCC2)cc1 | cytotoxicity at 70.5 h | % | -6.42 |
| Cc1c(C(=O)O)nnn1-c1cccc2cccnc12 | cytotoxicity at 70.5 h | % | -13.1 |
| CNC(=O)c1ccc(-c2ccc(CNS(=O)(=O)N(C)C)cc2)nc1C | cytotoxicity at 70.5 h | % | -0.408 |

// returns reported cytotoxicity at 70.5 h for input `CC(C)Oc1cccc(CN2CCC(c3n[nH]c4ncccc34)CC2)c1` 30.6

---

Measured cytotoxicity at 70.5 h of individual entries
assay: Human HepG2 cell viability assay in 384 well format; type: toxicity, cell-based; design: dose 125 nL, time 70.5 hour; concentration not given beside the values; conditions: HepG2 cells, read-out: Inhibition
# value in %; strip the unit string

// returns reported cytotoxicity at 70.5 h for input `CN(C)c1ncccc1CNS(=O)(=O)c1cc(F)cc(F)c1` -6.43

// returns reported cytotoxicity at 70.5 h for input Cc1cccc(-c2nc(CN3CCCC3Cn3cc(C)cn3)no2)c1 (centres undefined) 6.59

// returns reported cytotoxicity at 70.5 h for input `CC(C)(C)CNC(=O)c1ccc(C(=O)O)nc1` -9.27

// returns reported cytotoxicity at 70.5 h for input `CC1CCN(c2nccn3c(=O)[nH]nc23)CC1` -3.79

// returns reported cytotoxicity at 70.5 h for input Cc1nc(CC(=O)N2CCOC(c3nc(C(C)(C)C)n[nH]3)C2)cs1 (centres undefined) 20.6

Where do these numbers come from? They come from ChEMBL document CHEMBL3507680.
